- Tested on: Candida albicans
- Assay overview: Fungicidal activity against Candida albicans MTCC 227 assessed as fungal killing incubated for 24 hrs
- Format: functional
- Settings: MTCC 227, 24 h
For each entry below, report its MFC value.
Dear colleague, please send the value followed by its unit.

{"Compound": "O=C(N/N=C/c1ccc(O)cc1)c1n[nH]c2c1Cc1ccccc1-2", "MFC": "15.6 µg/mL"}
{"Compound": "O=C(N/N=C/c1ccc(O)cc1)c1n[nH]c2c1Cc1cc(F)ccc1-2", "MFC": "15.6 µg/mL"}
{"Compound": "COc1cc(/C=N/NC(=O)c2n[nH]c3c2Cc2ccccc2-3)ccc1O", "MFC": "15.6 µg/mL"}

Hi, could you look up MFC for each item in my list?
1. COc1ccc2c(c1)Cc1c(C(=O)N/N=C/c3c(F)cc(F)cc3F)n[nH]c1-2
2. COc1ccc2c(c1)Cc1c(C(=O)N/N=C/c3ccc(O)c(OC)c3)n[nH]c1-2
3. Clc1ccc(COC(Cn2ccnc2)c2ccc(Cl)cc2Cl)c(Cl)c1 (stereo unspecified)

1: 15.6 µg/mL; 2: 7.8 µg/mL; 3: 7.8 µg/mL

All figures here come from ChEMBL document CHEMBL4373647.
